Entry source: ChEMBL document CHEMBL1201862

tested on: MDA-MB-435; assay: NCI tumour cell line growth inhibition, 48 h
Active and inactive are the calls of the source. Rule as the data show it: active = GI50 up to about 1.1 µM and inactive = higher.
Please go through the items and note down their GI50.

Quick check: GI50 of CC12OC(=O)[C@@]3(O)CCC4C(C[C@H]5O[C@]56CC=CC(=O)[C@]46C)C45OC[C@H]6C(=O)O[C@@H]1C[C@@]6(C)[C@H](C4=O)C23O5 (some centres undefined) ?
1.42 µM (inactive)

Quick check: GI50 of COC(C(O)CO)C(O)C(O)C(=O)NNc1ccccc1 (centres undefined) ?
40.3 µM (inactive)

Quick check: GI50 of COc1ccc(/C=N/Nc2nnc3c(n2)c2ccccc2c2nn(-c4ccccc4Cl)nc23)cc1 ?
> 100 µM (inactive)

Quick check: GI50 of c1ccc(-c2nnn(CCN3CCCCC3)n2)cc1 ?
> 100 µM (inactive)

Quick check: GI50 of CC1(O)OC(=O)C2=C1CCC1C2CCC2(C)C(O)CCC12 (centres undefined) ?
> 100 µM (inactive)

Quick check: GI50 of CCCC/C=C/C/C=C/CCCCCCCCC(=O)OCC1CCCN2CCCCC12 (centres undefined) ?
> 100 µM (inactive)

Quick check: GI50 of CCOC(=O)c1ccc(C(=O)/C(C(C)=O)=C2\CCCN2C)n1C ?
> 100 µM (inactive)

Quick check: GI50 of Cn1c(-c2ccc[se]2)ccc1-c1ccc(CO)[se]1 ?
17.3 µM (inactive)

Quick check: GI50 of CSC(=O)c1sc(SC)[n+](-c2ccccc2)c1O ?
18.7 µM (inactive)

Quick check: GI50 of COC(=O)C1C2C=CC(C2)N1S(=O)(=O)c1ccccc1 (centres undefined) ?
> 100 µM (inactive)

Quick check: GI50 of Cc1nn(-c2ccccc2)c(C)c1/C=N/N=C1\S/C(=C\c2ccc(Cl)cc2)C(=O)N1c1ccccc1 ?
32 µM (inactive)

Quick check: GI50 of FC(F)(Sc1ccccc1)c1nc2ccccc2o1 ?
95.3 µM (inactive)

Quick check: GI50 of Clc1n[nH]c2ccccc12 ?
> 100 µM (inactive)

Quick check: GI50 of O=S1(=O)OC(c2ccc(O)cc2)(c2ccc(O)cc2)c2ccccc21 ?
> 100 µM (inactive)

Quick check: GI50 of CC(C)=NN/C(=N\c1ccc(Cl)cc1)NS(=O)(=O)c1cc2ccccc2s1 ?
36.7 µM (inactive)

Quick check: GI50 of CCOC(=O)C1(C(=O)OCC)C[C@H](C)[C@](C)(O)C1 ?
> 100 µM (inactive)

Quick check: GI50 of CCCC(=O)C1=C(O)C(Cc2c(O)c(C)c(O)c(C(=O)CCC)c2O)=C(O)C(C)(C)C1=O ?
> 50 µM (inactive)

Quick check: GI50 of C1=N\CCNCC/N=C\c2ccc(cc2)OCc2cccc(n2)COc2ccc/1cc2 ?
> 100 µM (inactive)

Quick check: GI50 of COc1ccc(/C=C(/c2ccc(OC)cc2)c2c(Cl)cc(Cl)c(/C(=C\c3ccc(OC)cc3)c3ccc(OC)cc3)c2/N=N/c2ccccc2)cc1 ?
> 100 µM (inactive)
